Test summary: folding enthalpy; higher = less favourable; fluorescence melt of hairpins on a sequencing array, two-state fit
Measurement conditions: sodium 0.088 M
Attribute measured: folding enthalpy (kcal/mol)

Biosequence: GTCCGAACGAAAGTTGAC (((..(((....))))))
Measure unit: kcal/mol
Observed result: -15.3
--
Biosequence: GTCCCCACGAAAGTGGAC (((..(((....))))))
Measure unit: kcal/mol
Observed result: -6.73
--
Biosequence: GCTCAGCGAAAGCTGTGC ((.((((....)))).))
Measure unit: kcal/mol
Observed result: -21.5
--
Biosequence: GCGGAGAAATCCGC (((((....)))))
Measure unit: kcal/mol
Observed result: -29.1
--
Biosequence: GTTGGCGAAAGCCTCAAC ((((((....)))..)))
Measure unit: kcal/mol
Observed result: -10.6
--
Biosequence: GAACTAGGAAACTAGTCC (.(((((....))))).)
Measure unit: kcal/mol
Observed result: -20.4
--
Biosequence: GCGCAAACGAAAGTTCGC (((..(((....))))))
Measure unit: kcal/mol
Observed result: -22.6
--
Biosequence: GGTTCCGGAAACAGAACC (((((.(....).)))))
Measure unit: kcal/mol
Observed result: -35.7
--
Biosequence: GGAAAGGGAAACTTTTCC (((((.(....).)))))
Measure unit: kcal/mol
Observed result: -18.8
--
Biosequence: GGCCGAGGAAACCCGACC ((.((.(....).)).))
Measure unit: kcal/mol
Observed result: -24.9
--
Biosequence: GCCGTTCGAAAGAAGGC (((.(((....))))))
Measure unit: kcal/mol
Observed result: -30.4
--
Biosequence: GGAGTACCGAAAGGTTCC (((..(((....))))))
Measure unit: kcal/mol
Observed result: -15
--
Biosequence: GTCTTGGGAAACCAAGAC (((((((....)))))))
Measure unit: kcal/mol
Observed result: -46.4
--
Biosequence: GATCTTGTGCAAGATC ((((((....))))))
Measure unit: kcal/mol
Observed result: -47
--
Biosequence: GGGACCGAAAGGTACCCC ((((((....)))..)))
Measure unit: kcal/mol
Observed result: -12.5
--
Biosequence: GCCCATGGAAACGTGGGC (((((.(....).)))))
Measure unit: kcal/mol
Observed result: -38.2
--
Biosequence: GCCAGGGGAAACCCCAGC ((..(((....)))..))
Measure unit: kcal/mol
Observed result: -21.5
--
Biosequence: GGGTGCCGAAAGGCCCC (((.(((....))))))
Measure unit: kcal/mol
Observed result: -21.8
--
Biosequence: GTATAGCGAAAGCTCTAC (((.(((....))).)))
Measure unit: kcal/mol
Observed result: -17.3
--
Biosequence: GATCTCAAAAGAGATC ((((((....))))))
Measure unit: kcal/mol
Observed result: -29.8
--
Biosequence: GCAGCTCGAAAGAGTTGC (((.(((....))).)))
Measure unit: kcal/mol
Observed result: -44.2
--
Biosequence: GCTTTCGAAAGAAAAAGC ((((((....)))..)))
Measure unit: kcal/mol
Observed result: -26.6
--
Biosequence: GCAGGCGAAAGCCCGTGC ((((((....)))..)))
Measure unit: kcal/mol
Observed result: -13.1
--
Biosequence: GATGCCGAAAGGCGTATC ((((((....)))..)))
Measure unit: kcal/mol
Observed result: -11.5
--
Biosequence: GCGGGGTCCCGC ((((....))))
Measure unit: kcal/mol
Observed result: -29.3
